Reported Emax is given for each of the following compounds.
# target-system: 5-HT2A receptor (Homo sapiens, UniProt P28223)
# Sequence (P28223 whole entry): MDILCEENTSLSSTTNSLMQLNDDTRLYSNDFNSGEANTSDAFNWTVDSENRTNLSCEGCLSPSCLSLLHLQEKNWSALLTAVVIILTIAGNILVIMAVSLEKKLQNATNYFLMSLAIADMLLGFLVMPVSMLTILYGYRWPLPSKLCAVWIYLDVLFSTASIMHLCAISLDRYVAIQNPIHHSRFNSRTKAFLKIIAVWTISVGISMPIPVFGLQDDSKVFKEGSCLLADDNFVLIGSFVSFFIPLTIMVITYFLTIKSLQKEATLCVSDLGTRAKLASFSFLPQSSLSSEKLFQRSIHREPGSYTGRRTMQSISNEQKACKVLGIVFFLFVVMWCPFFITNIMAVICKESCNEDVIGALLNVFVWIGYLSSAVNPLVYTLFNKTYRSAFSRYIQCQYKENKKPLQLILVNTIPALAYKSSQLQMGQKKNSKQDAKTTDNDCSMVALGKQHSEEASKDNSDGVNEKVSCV
# assay-remarks: cell-based
# Type: cell-based
# Set-up: expressed in transfected cells; host or cells: HEK293, stably transfected
# measurement-parameters: HEK293, agonist, Ca2+ flux, HEK293, max dose; read-out: 5-HT2A % Act @ Max Dose
Return type: number; implicit unit %.

>  <compound>
CCN(CC)C(=O)[C@@H]1C=C2c3cccc4[nH]cc(c34)C[C@H]2N(CCCF)C1 [Compound 2]

>  <unit-info>
%

>  <Emax>
97.8

$$$$
>  <compound>
CCN(CC)C(=O)[C@@H]1C=C2c3cccc4[nH]cc(c34)C[C@H]2N(Cc2ccc(Cl)cc2)C1 [Compound 50]

>  <unit-info>
%

>  <Emax>
88.2

$$$$
>  <compound>
CCCN1C[C@H](C(=O)N[C@H](C)CC)C=C2c3cccc4[nH]c(Br)c(c34)C[C@H]21 [Compound 46]

>  <unit-info>
%

>  <Emax>
69.5

$$$$
>  <compound>
CCN(CC)C(=O)[C@@H]1C=C2c3cccc4[nH]cc(c34)C[C@H]2N(Cc2ccon2)C1 [Compound 70]

>  <unit-info>
%

>  <Emax>
84.7

$$$$
>  <compound>
CCC[C@@H](C)NC(=O)[C@@H]1C=C2c3cccc4[nH]cc(c34)C[C@H]2N(C)C1 [Int17]

>  <unit-info>
%

>  <Emax>
91.5

$$$$
>  <compound>
CC[C@@H](C)NC(=O)[C@@H]1C=C2c3cccc4[nH]cc(c34)C[C@H]2N(Cc2cccc(OC)c2)C1 [Compound 95]

>  <unit-info>
%

>  <Emax>
63.8

$$$$

Quote Emax reported for CCN(CC)C(=O)[C@@H]1C=C2c3cccc4[nH]cc(c34)C[C@H]2N(Cc2ccccc2O)C1 [Compound 16] please.
62

All values here come from patent US20260317319A1.
